FYI, the data here is from the supplement of paper PMC9732359.

EXPERIMENT_DESCRIPTION: protein stability index of a GFP-peptide fusion (yeast GPS) (PSI 1-4); higher = more stable; sorted into four equal gates, so the index is relative within each strain
EXPERIMENTAL_SETUP: doa10∆
Assign 1 to entries whose protein stability index meets or exceeds 2; assign -1 to the rest.

MONOMER_SEQUENCE	QUALITATIVE_LABEL
GRIPLHWSVSFQAHEIT [NAS6]	1
GKICLILTRLNGILPDD [SSN2]	1
ESQLQMDRTSLRKQYSA [SMC3]	1
PLRLRLYDNFVSKFYDK [RPN9]	1
VLADALNAINNAEKTGK [RPS22A]	1
EFGTYGKYVIAGHVSGV [RPN14]	-1
NLQIRQLFNWCLMRSLH [DSN1]	-1
TSTVNRLNTVTRVHQLM [MCD1]	1
IITQYVFESLEINNLIQ [ARP9]	1
FLDYTTDNVSMYPSPTG [PRP8]	1
NYNHLLPTRYTLDVEAF [RPL27A]	-1
EILVLYNVCDTSKSLVK [SIN4]	1
RSDSYMLHKVLENKADP [RPT6]	1
IFLKRKDFTNKNLIQLI [SRB8]	-1
MGRVRTKTVKRASKALI [RPS17A]	1
